These entries and their values trace back to patent US20210330611A1.

Measured inhibition at 10 µM, listed per entry.
Test system: fibrin-induced microglia activation
Assay: Image-based assay of fibrin-induced microglia activation (HTS and dose response)
Type: cell-based, rat
Conditions: Rattus norvegicus, Microglia, primary microglia HTS, fibrin stimulation; increased cell size (>800 μm^2) as marker of activation; read-out: Fibrin % inhibition
Where a name gives a salt, the structure may show the parent alone.

[
  {
    "Molecule": "C[C@]12CCC(=O)C=C1CC[C@@H]1[C@@H]2[C@@H](O)C[C@@]2(C)[C@H]1CC[C@]2(O)C(=O)CO [Hydrocortisone, reference compound]",
    "inhibition at 10 µM": "104%"
  },
  {
    "Molecule": "C[C@]12CC[C@@H]3c4ccc(O)cc4CC[C@H]3[C@@H]1CCC2=O",
    "inhibition at 10 µM": "106%"
  },
  {
    "Molecule": "CCCCCCCCCCCCCCCC[N+](C)(C)C",
    "inhibition at 10 µM": "114%"
  },
  {
    "Molecule": "COc1c(C)c2c(c(O)c1C/C=C(\\C)CCC(=O)O)C(=O)OC2 [Mycophenolic acid, reference compound]",
    "inhibition at 10 µM": "94%"
  },
  {
    "Molecule": "CC(=O)[C@@]1(O)CC[C@H]2[C@@H]3C[C@H](C)C4=CC(=O)C=C[C@]4(C)[C@@]3(F)[C@@H](O)C[C@@]21C",
    "inhibition at 10 µM": "104%"
  },
  {
    "Molecule": "COc1ccc2c(c1OC)C(=O)O[C@@H]2[C@H]1c2c(cc3c(c2OC)OCO3)CCN1C [Noscapine Hydrochloride]",
    "inhibition at 10 µM": "-15%"
  },
  {
    "Molecule": "Cc1cc(NC(=O)C2=C(O)c3ccccc3S(=O)(=O)N2C)no1 [Isoxicam, reference compound]",
    "inhibition at 10 µM": "67%"
  },
  {
    "Molecule": "CO[C@H]1C[C@@H]2CC[C@@H](C)[C@@](O)(O2)C(=O)C(=O)N2CCCC[C@H]2C(=O)O[C@H]([C@H](C)C[C@@H]2CC[C@@H](O)[C@H](OC)C2)CC(=O)[C@H](C)/C=C(\\C)[C@@H](O)[C@@H](OC)C(=O)[C@H](C)C[C@H](C)/C=C/C=C/C=C/1C [Rapamycin, reference compound]",
    "inhibition at 10 µM": "86%"
  },
  {
    "Molecule": "CCCc1nc(C(C)(C)O)c(C(=O)O)n1Cc1ccc(-c2ccccc2-c2nnn[nH]2)cc1",
    "inhibition at 10 µM": "-13%"
  },
  {
    "Molecule": "Cc1cc(C(C)(C)C)c(O)c(C)c1CC1=NCCN1",
    "inhibition at 10 µM": "-13%"
  },
  {
    "Molecule": "N[C@@H](Cc1ccc(N(CCCl)CCCl)cc1)C(=O)O",
    "inhibition at 10 µM": "28%"
  },
  {
    "Molecule": "COc1cc2nc(N3CCN(C(=O)c4ccco4)CC3)nc(N)c2cc1OC",
    "inhibition at 10 µM": "43%"
  },
  {
    "Molecule": "Clc1ccc(C(OCCN2CCCCC2)c2ccccc2)cc1 (stereo not drawn) [Cloperastine hydrochloride, reference compound]",
    "inhibition at 10 µM": "64%"
  },
  {
    "Molecule": "Nc1ccc(O)c(C(=O)O)c1",
    "inhibition at 10 µM": "9%"
  },
  {
    "Molecule": "O=C(O)CCc1nc(-c2ccccc2)c(-c2ccccc2)o1",
    "inhibition at 10 µM": "0%"
  }
]
